test_system: T1, A1 ΔC20 (Mus musculus, UniProt Q07440)
T1 construct: mouse A1 (Acc. no. NP_033872; residues 1-152); GST (N, cleaved yes); made in house
T1 sequence (Q07440 1-152, stated change not applied): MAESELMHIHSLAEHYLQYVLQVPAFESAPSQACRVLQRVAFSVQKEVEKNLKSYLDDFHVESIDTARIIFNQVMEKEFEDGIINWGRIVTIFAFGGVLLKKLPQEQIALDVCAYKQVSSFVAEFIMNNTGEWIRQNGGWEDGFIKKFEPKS
protocol_description: A1 ΔC20
Procedure: Table printed on a drawing sheet, FIGURE 2A Head of the field: A1 ΔC20 The patent's description of the figure: FIG. 2 is a graphical representation showing pro-apoptotic BH3-only and pro-survival Bcl-2-like proteins have distinctive interactions. (A) Using competitive binding assays, the IC50 (nM) for the indicated interactions were determined. […] Where the first naming reader finds the target: head: A1 ΔC20
parameter: IC50 (µM)
Number in µM, nothing else.

According to the records, this molecule Bad: full-length mouse BH3-only protein Bad expressed in cells, recombinant in GST pull-down (protein, UniProt Q61337 1-204, looked up, full-length, full-length mouse BH3-only protein Bad expressed in cells, recombinant in GST pull-down) MGTPKQPSLAPAHALGLRKSDPGIRSLGSDAGGRRWRPAAQSMFQIPEFEPSEQEDASATDRGLGPSLTEDQPGPYLAPGLLGSNIHQQGRAATNSHHGGAGAMETRSRHSSYPAGTEEDEGMEEELSPFRGRSRSAPPNLWAAQRYGRELRRMSDEFEGSFKGLPRPKSAGTATQMRQSAGWTRIIQSWWDRNLGKGGSTPSQ displays IC50 of 15
